system: TRPC4 (mouse), co-expressed with 5HT1a in HEK293; experiment: enhancement of serotonin-evoked TRPC4 response – cell-based, second counter screen, HEK293 TRPC4/5HT1a, Fluo-4, counter-screen for TRPC4 potentiator project, confirmation (AID 434979); conditions: Fluo-4 calcium flux, at 10 µM, serotonin added at its EC20 dose
Calls of active or inactive are those of the source.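 Rule for the calls: active = signal rise over 3 SD above mean of control wells given weak agonist, in both repeats and first screen; inactive = the rest.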
Lab note: assign the record to one of 1 for active, 0 for inactive

Here are 2 compounds together with their reported answers.
{"compound": "CCOC(=O)C1CCN(C2CCN(C(=O)c3oc4c(C)c(C)ccc4c3C)CC2)CC1", "label": 0}
{"compound": "CCOC(=O)C(CCCCCOc1ccc([N+](=O)[O-])cc1)C(=O)OCC", "label": 0}

Called result for COc1ccc(O)c(C(=O)c2cnc3c(c2)c(=O)[nH]c(=O)n3C)c1 0

Called result for CN(C)CCCN(C(=O)CCc1ccccc1)c1nc2ccc(F)cc2s1 0

Called result for CCC(CC)c1nnc(NC(=O)c2c(C)nn(Cc3ccccc3Cl)c2C)s1 1

Called result for OCC1(Cc2ccc(Cl)cc2)CCN(Cc2ccccc2F)CC1 0

Called result for COc1cc(CNCCc2ccc(F)cc2)ccc1OCc1ccc(Cl)nc1 0

Called result for CCn1c(CN2CCN(C(c3ccccc3)c3ccccc3)CC2)nc2c1c(=O)n(C)c(=O)n2C 1

Called result for CC(C)n1c(SCC(=O)N2c3ccccc3Sc3ccccc32)nc2c1c(=O)n(C)c(=O)n2C 1

Called result for CCCCCCc1cc2cc(-c3nnc(-c4ccccc4O)o3)c(=O)oc2cc1O 1

Called result for CCOC(=O)C1(Cc2cccc(F)c2)CCN(Cc2c(C)nn(CC)c2C)CC1 0

====

target: Short transient receptor potential channel 4 (Mus musculus); assay: calcium flux activators in TRPC4/5HT1a cells, counter-screen for TRPC4 activator project, cell-based, second counter screen, HEK293 TRPC4/5HT1a, Fluo-4 (AID 434977); details: Fluo-4 calcium flux, at 10 µM
Active and inactive are the calls of the source.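 The calls were made as follows: active = calcium signal rise above buffer-control mean plus 5 SD in both duplicates, and also a hit in the primary screen; inactive = the rest.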
Lab note: assign the record to one of active, inactive

Here are 5 compounds together with their reported answers.
{"compound": "Cc1ccc(-c2csc3ncnc(NCCN4CCOCC4)c23)cc1", "label": "inactive"}
{"compound": "CCC1(C(=O)c2ccccc2)C(c2ccc([N+](=O)[O-])cc2)C1(C(=O)OC)C(=O)OC (configuration not stated)", "label": "inactive"}
{"compound": "Cn1c(-c2ccccc2)cnc1NCc1ccccc1", "label": "inactive"}
{"compound": "CC1CC(C)CN(CCCNC(=O)c2csc3c2CCCCC3)C1 (configuration not stated)", "label": "active"}
{"compound": "CC1=NN(C(=O)COc2ccc(C)c(C)c2)C(O)(c2ccc(Cl)cc2)C1 (configuration not stated)", "label": "inactive"}

Called result for CN1CCN(C(=O)c2cccn(Cc3c(Cl)cccc3Cl)c2=O)CC1 active

Called result for CCC(C)[C@H](Nc1nc(-c2ccccc2)nc2c1oc1ccccc12)C(=O)O (some centres not stated) inactive

Called result for CCOC(=O)C1(Cc2ccccc2)CCN(Cc2cccn2-c2cccnc2)CC1 inactive

====

biological target: Short transient receptor potential channel 4 (Mus musculus) (UniProt Q9QUQ5); assay: calcium flux activators in TRPC4/5HT1a cells, counter-screen for TRPC4 activator project, cell-based, second counter screen, HEK293 TRPC4/5HT1a, Fluo-4 (AID 434977); conditions: Fluo-4 calcium flux, at 10 µM
Calls of active or inactive are those of the source.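 How the source made its calls: active means calcium signal rise above buffer-control mean plus 5 SD in both duplicates, and also a hit in the primary screen; inactive means the rest.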
Lab note: assign the record to one of active, inactive

Called result for Cc1cc(C)c2c(=O)n(CC(=O)NCCCN3CCN(c4ccccc4F)CC3)sc2n1 inactive

Called result for COc1c2c(cc3c1C(CC(O)Cc1ccccc1)N(C)CC3)OCO2 (configuration not stated) inactive

Called result for Cc1cc(OCCn2ccnc2)cc(C)c1Cl active

Called result for C=CCn1c(SCC(=O)c2ccc(NS(=O)(=O)c3ccccc3)cc2)nnc1-c1cccs1 inactive

Called result for O=C(O)CCNc1nc(-c2ccccc2)c2cc(Br)ccc2n1 inactive

Called result for Cc1ccc(O)c(Sc2cc(C)ccc2O)c1 inactive

Called result for COc1ccc(C(CNCC(O)COc2c(C)ccc(C)c2C)N(C)C)cc1 (configuration not stated) inactive

====

test system: transient receptor potential cation channel C4 beta (TRPC4), mouse; experiment: TRPC4 cation channel opening, second retest – cell-based, second round, Fluo4, HEK293 TRPC4beta/mu-opioid, 1 µM, confirmation (AID 2461); settings: Fluo4 calcium fluorescence, at 1 µM
Calls of active or inactive are those of the source.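 The calls were made as follows: active = primary screen active and over 50% activation in each of two duplicate runs; inactive = the rest.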
Lab note: assign the record to one of label 1 (active), label 0 (inactive)

Here are 2 molecules together with their reported answers.
{"molecule": "Cc1[nH]nc(Nc2ccccc2)c1[N+](=O)[O-]", "label": "label 0"}
{"molecule": "C=CCOc1ccc(Br)cc1CNC(C)(C)CO", "label": "label 0"}

Called result for Cc1ccc2c(c1)N(C(=O)CCC(=O)Nc1ccccc1Cl)CC(C)O2 (centres undefined) label 0

Called result for COC(=O)[C@@]12CCCCN1[C@H](c1ccc(-c3ccc(C(C)=O)cc3)cc1)[C@@H]1C(=O)N(C)C(=O)[C@@H]12 label 0

====

test system: TRPC4 beta (transient receptor potential cation channel C4), mouse; test: potentiation of DAMGO EC20 TRPC4 response – cell-based, Fluo-4, HEK293 TRPC4beta/mu-opioid, confirmation (AID 2555); settings: DAMGO EC20, Fluo-4 calcium flux, at 10 µM
Activity calls are given as the source filed them.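 Rule for the calls: active = primary screen hit whose calcium fluorescence ratio, in both repeats, exceeds the weak agonist control mean by 3 SD; inactive = the rest.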
Lab note: assign the record to one of active, inactive

{"molecule": "CCN(CC)CCCNC(=S)N1CCN(c2nc3ccccc3n2CC)CC1", "label": "inactive"}

Called result for CCN(CC)C(=O)C1CCCN(Cc2cccc(Oc3ccccc3)c2)C1 (centres undefined) inactive

Called result for Cc1cc(OCC(=O)NNC(=S)NC(=O)c2cccs2)ccc1Cl inactive

====

test system: TRPC4 (transient receptor potential cation channel C4 beta), mouse; assay: potentiation of DAMGO EC20 TRPC4 response – cell-based, second round, Fluo-4, HEK293 TRPC4beta/mu-opioid, 1 µM, confirmation (AID 2554); settings: DAMGO EC20, Fluo-4 calcium flux, at 1 µM
Calls of active or inactive are those of the source.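 Rule for the calls: active = primary screen hit whose fluorescence ratio, in both repeats, exceeds the weak agonist control mean by 3 SD; inactive = the rest.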
Lab note: assign the record to one of True for active, False for inactive

{"compound": "CCOC(=O)CSc1nc2ccccc2c(=O)n1C1CCCC1", "label": "False"}
{"compound": "Cc1cc(C)cc(NC(=O)c2nnn(Cc3cc(C)ccc3C)c2N)c1", "label": "False"}
{"compound": "CC(C)CCN1CCN(Cc2ccsc2)CC1CCO (stereo not drawn)", "label": "False"}

Kindly review the next compound as well.
Called result for CC1CCc2c(C(=O)N3CCN(S(=O)(=O)c4cccs4)CC3)csc2C1 (stereo not drawn) False

====

system: TRPC4 beta (transient receptor potential cation channel C4), mouse; assay: TRPC4 cation channel opening, retest – cell-based, Fluo4 calcium, HEK293 TRPC4beta/mu-opioid, duplicates, 10 µM, confirmation (AID 2426); details: Fluo4 calcium fluorescence, at 10 µM
The source made the active and inactive calls.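 How the source made its calls: active means fluorescence ratio normalized to control raised more than 50% in primary screen plus both repeat runs; inactive means the rest.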
Lab note: assign the record to one of active, inactive

{"molecule": "CC(C)CCn1c(N2CCN(c3cccc(Cl)c3)CC2)nc2c1c(=O)[nH]c(=O)n2C", "label": "inactive"}
{"molecule": "Cc1cccc(C(=O)NC(=S)NNC(=O)Cc2ccccc2)c1", "label": "active"}
{"molecule": "Cn1c2ccccc2c(=O)c2c(=O)n(C3CCCCC3)c(-c3ccco3)nc21", "label": "inactive"}
{"molecule": "Cc1cccc(N2CCN(Cc3ccoc3)CC2)c1C", "label": "inactive"}
{"molecule": "CCOC(=O)C1=C(N)OC2=C(C(=O)CC(C)(C)C2)C1c1ccc(CC)s1 (stereo unspecified)", "label": "inactive"}
{"molecule": "CN(C)C(CNC(=O)CCS(=O)(=O)c1ccccc1)c1ccccc1 (stereo unspecified)", "label": "active"}
{"molecule": "CCN1CCN(c2ccc(S(=O)(=O)N3CCCCC3)cc2NC(=O)c2cccc(F)c2)CC1", "label": "inactive"}
{"molecule": "COc1cc(CN2CCC(CO)(CCOc3ccccc3)CC2)cc(OC)c1", "label": "inactive"}
{"molecule": "CCCCNCc1cc(Cl)c(OCCC)c(OCC)c1", "label": "inactive"}
{"molecule": "O=C(Cc1cccc(F)c1F)NC1CCCN(Cc2ccc(Cl)cc2)C1 (stereo unspecified)", "label": "inactive"}

Called result for CCCNCc1cc(Br)ccc1OCC(=O)NCCc1ccccc1 inactive

Called result for COc1ccc(C(=O)OCCc2sc[n+](CC(=O)c3ccccc3)c2C)cc1 inactive

Called result for Cc1ccc(/C=N/NC(=S)NC2CCCCC2)o1 inactive

Called result for CC1CCCN1CC#CC(O)(c1ccccc1)c1ccccc1 (stereo unspecified) inactive

Called result for CCOc1nc(C)cc(C)c1S(=O)(=O)c1cccc(C)c1 inactive

Called result for CCN(CC(=O)NCc1ccc(Cl)cc1)CC(=O)NC1(C#N)CCCC1 inactive
